# test method notes: qHTS RealTime-Glo MT Cell Viability Assay in HepG2 cells - 40 hour (AID 1224870); further: nearly all actives have a fitted effect of over 50% in size
# condition parameters: RealTime-Glo luminescence; series mostly up to 76.8 µM
Inconclusive results are not listed. The source made the active and inactive calls. The call rests on the fitted dose curve; in most records, active means well fitted cell-killing curve with a large enough effect in the repeat runs; inconclusive means weak or mixed curves, or effect the other way; inactive means flat fitted curve, though single readings scatter.
property label: outcome

Before answering, review these 8 worked examples.
>>> result_value("COc1cccc2c1cc([N+](=O)[O-])c1c(C(=O)O)cc3c(c12)OCO3")
"inactive"
>>> result_value("CC(C(=O)c1ccccc1)N(C)C (stereo not given)")
"inactive"
>>> result_value("N#CCBr")
"inactive"
>>> result_value("[Cl][Sn]([Cl])([Cl])[Cl]")
"inactive"
>>> result_value("COC(=O)c1c(C(F)F)nc(C(F)(F)F)c(C2=NCCS2)c1CC(C)C")
"inactive"
>>> result_value("O=c1oc2ccccc2c(O)c1C1CCCc2ccccc21 (stereo not given)")
"inactive"
>>> result_value("CC(C)CP(=S)(S)CC(C)C")
"inactive"
>>> result_value("COc1cccc(C(=O)NN(C(=O)c2cc(C)cc(C)c2)C(C)(C)C)c1C")
"inactive"

Query: Could you tell me which outcome is on file for CN1CCC(N(Cc2ccccc2)c2ccccc2)CC1 ?
Reply: inactive

Query: Could you tell me which outcome is on file for Cc1ncc2n1-c1ccc(Cl)cc1C(c1ccccc1F)=NC2 ?
Reply: inactive

Query: Could you tell me which outcome is on file for ClC(Cl)Br ?
Reply: inactive

Query: Could you tell me which outcome is on file for CC(C)CC#N ?
Reply: inactive

Query: Could you tell me which outcome is on file for [O]=[Cd] ?
Reply: inactive

Query: Could you tell me which outcome is on file for CC(C)NCC(O)c1ccc(N)c(C#N)c1 (stereo not given) ?
Reply: inactive

Query: Could you tell me which outcome is on file for CCCCOC(=O)c1ccccc1C(=O)O ?
Reply: inactive

Query: Could you tell me which outcome is on file for Cc1cnc[nH]1 ?
Reply: inactive

Query: Could you tell me which outcome is on file for C=C(C)[C@@H]1CC=C(C=O)CC1 ?
Reply: inactive

Query: Could you tell me which outcome is on file for COC(=O)C(c1ccccc1)C1CCCCN1 (stereo not given) ?
Reply: inactive

Query: Could you tell me which outcome is on file for N#CCCC#N ?
Reply: inactive

Query: Could you tell me which outcome is on file for CCOc1nc(C(Cl)(Cl)Cl)ns1 ?
Reply: inactive

Query: Could you tell me which outcome is on file for N#CC(O)c1ccccc1 (stereo not given) ?
Reply: inactive

Query: Could you tell me which outcome is on file for CCC(C)n1c(=O)[nH]c(C)c(Br)c1=O (stereo not given) ?
Reply: inactive

Query: Could you tell me which outcome is on file for CC(C1CC1)C(O)(Cn1cncn1)c1ccc(Cl)cc1 (stereo not given) ?
Reply: inactive

Query: Could you tell me which outcome is on file for NC(=S)C(N)=S ?
Reply: inactive

Query: Could you tell me which outcome is on file for CCN(CC)C(C)C(=O)c1ccccc1 (stereo not given) ?
Reply: inactive

====

# test method notes: A CellTox Green Cytotoxicity Assay to monitor cytotoxicity in HepG2 cells - 40 hour (AID 1224879); further: nearly all actives have a fitted effect of over 40% in size
# condition parameters: CellTox Green fluorescence; series mostly up to 76.8 µM
Inconclusive results are not listed. Calls of active or inactive are those of the source. Calls follow the shape of the dose curve; as a rule, active = well fitted activation curve with a large enough effect in the repeat runs; inconclusive = weak or mixed curves; inactive = flat fitted curve, though single readings scatter.
Outcomes you can answer with include only these: 1.0 (active), 0.0 (inactive)

>>> discrete_label("C[N+](C)=CCl")
0.0
>>> discrete_label("ClC(Cl)Br")
0.0
>>> discrete_label("COC(=O)COc1ccc(Cl)cc1Cl")
0.0
>>> discrete_label("Cc1coc2c1CCC(C)C2 (stereo not drawn)")
0.0
>>> discrete_label("c1cc2c(c(N3CCNCC3)c1)OCCO2")
0.0
>>> discrete_label("O=C(O)C(Br)CBr (stereo not drawn)")
0.0
>>> discrete_label("N#CC(CCc1ccc(Cl)cc1)(Cn1cncn1)c1ccccc1 (stereo not drawn)")
1.0
>>> discrete_label("CC(C)(C)OC(=O)c1ncn2c1[C@@H]1CCCN1C(=O)c1c(Br)cccc1-2")
0.0

Query: Hey, what did the test say about CCCCCCI ?
Reply: 0.0

Query: Hey, what did the test say about CNC(=O)O/N=C(\C)SC ?
Reply: 0.0

Query: Hey, what did the test say about CCNc1nc(NC(C)C)nc(OC)n1 ?
Reply: 0.0
